# credit: patent US7074789B2

# target desc: PDGFRB (Homo sapiens)
# Construct: Kinases are expressed as either kinase domains or full length constructs; made in house
# Sequence (P09619 33-1106, species assumed): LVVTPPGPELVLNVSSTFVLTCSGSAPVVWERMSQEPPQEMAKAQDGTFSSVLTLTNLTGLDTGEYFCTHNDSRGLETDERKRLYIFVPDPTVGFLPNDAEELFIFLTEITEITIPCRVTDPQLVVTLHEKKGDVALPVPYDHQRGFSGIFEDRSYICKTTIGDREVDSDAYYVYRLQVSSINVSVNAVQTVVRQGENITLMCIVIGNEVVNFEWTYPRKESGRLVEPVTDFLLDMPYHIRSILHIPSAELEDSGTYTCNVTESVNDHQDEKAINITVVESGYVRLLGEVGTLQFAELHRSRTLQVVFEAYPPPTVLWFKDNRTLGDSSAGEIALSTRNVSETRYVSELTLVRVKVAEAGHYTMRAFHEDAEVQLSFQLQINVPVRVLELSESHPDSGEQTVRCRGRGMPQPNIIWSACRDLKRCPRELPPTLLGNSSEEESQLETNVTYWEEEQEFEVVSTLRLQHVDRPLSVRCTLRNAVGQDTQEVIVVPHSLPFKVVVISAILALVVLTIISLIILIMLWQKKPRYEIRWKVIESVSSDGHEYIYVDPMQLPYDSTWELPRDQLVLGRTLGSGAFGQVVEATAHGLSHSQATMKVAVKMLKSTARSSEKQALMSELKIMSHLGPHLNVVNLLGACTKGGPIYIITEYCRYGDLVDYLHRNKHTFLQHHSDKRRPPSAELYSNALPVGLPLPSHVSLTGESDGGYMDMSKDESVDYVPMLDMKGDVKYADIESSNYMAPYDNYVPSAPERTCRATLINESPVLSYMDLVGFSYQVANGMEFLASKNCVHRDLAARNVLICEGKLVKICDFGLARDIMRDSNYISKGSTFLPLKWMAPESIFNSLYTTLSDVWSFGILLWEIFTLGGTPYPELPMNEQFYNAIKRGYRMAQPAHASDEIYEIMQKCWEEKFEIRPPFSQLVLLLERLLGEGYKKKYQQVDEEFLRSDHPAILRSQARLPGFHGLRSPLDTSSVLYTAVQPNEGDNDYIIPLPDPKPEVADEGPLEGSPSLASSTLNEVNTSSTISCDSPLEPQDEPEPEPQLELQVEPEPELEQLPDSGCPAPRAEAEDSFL
# protocol summary: Kinase inhibition assay (33P transfer), PDGFRB
# Assay type: biochemical
# condition summary: read-out: PDGFRB-1
pIC50: −log10 of the molar value.
endpoint label: pIC50

## Task Reported pIC50, compound O=C(O)CCc1cccc(Nc2ncnc(Nc3cc(-c4ccco4)[nH]n3)n2)c1 : ____
## Result 5.21 to 5.99

## Task Which pIC50 reading was recorded for the compound COC(=O)c1ccc(-c2cc(Nc3ncnc(NCc4cccs4)n3)[nH]n2)cc1 ?
## Result 5.23 to 6.01

## Task What value of pIC50 has been recorded for this entry: CCOC(=O)N1CCC(Nc2ncnc(N3CCCc4cc(C)ccc43)n2)CC1
## Result < 4.95

## Task Fill blank: measured pIC50 of the compound COc1cc(Nc2ncnc(Nc3ccc4c(c3)CCC4)n2)cc(OC)c1OC is ____.
## Result > 5.99

## Task For the compound shown here, COc1ccc(Nc2ncnc(N(C)c3ccc(F)cc3F)n2)cc1OC , give the reported pIC50.
## Result 5.19 to 5.97

## Task Could you share which pIC50 value was measured for COc1cc(Nc2ncnc(N3CCCc4ccc(Cl)cc43)n2)cc(OC)c1OC ?
## Result < 4.98

## Task Which value of pIC50 has been reported for c1coc(-c2cc(Nc3ncnc(Nc4nc[nH]n4)n3)n[nH]2)c1 in the records?
## Result 5.11 to 5.89

## Task // lookup pIC50 for COc1ccc(Nc2ncnc(N(C)c3ccccc3)n2)cc1OC
## Result 4.98 to 5.15

## Task Give the measured pIC50 of COc1cccc(Nc2ncccc2-c2ncnc(Nc3cc(OC)c(OC)c(OC)c3)n2)c1 .
## Result 5.28 to 6.06

====

Please respond with reported IC50 for every item in the list.
# target desc: Kdr (Homo sapiens)
# Construct: Kinases are expressed as either kinase domains or full length constructs; made in house
# Sequence (P35968 20-1356, species assumed): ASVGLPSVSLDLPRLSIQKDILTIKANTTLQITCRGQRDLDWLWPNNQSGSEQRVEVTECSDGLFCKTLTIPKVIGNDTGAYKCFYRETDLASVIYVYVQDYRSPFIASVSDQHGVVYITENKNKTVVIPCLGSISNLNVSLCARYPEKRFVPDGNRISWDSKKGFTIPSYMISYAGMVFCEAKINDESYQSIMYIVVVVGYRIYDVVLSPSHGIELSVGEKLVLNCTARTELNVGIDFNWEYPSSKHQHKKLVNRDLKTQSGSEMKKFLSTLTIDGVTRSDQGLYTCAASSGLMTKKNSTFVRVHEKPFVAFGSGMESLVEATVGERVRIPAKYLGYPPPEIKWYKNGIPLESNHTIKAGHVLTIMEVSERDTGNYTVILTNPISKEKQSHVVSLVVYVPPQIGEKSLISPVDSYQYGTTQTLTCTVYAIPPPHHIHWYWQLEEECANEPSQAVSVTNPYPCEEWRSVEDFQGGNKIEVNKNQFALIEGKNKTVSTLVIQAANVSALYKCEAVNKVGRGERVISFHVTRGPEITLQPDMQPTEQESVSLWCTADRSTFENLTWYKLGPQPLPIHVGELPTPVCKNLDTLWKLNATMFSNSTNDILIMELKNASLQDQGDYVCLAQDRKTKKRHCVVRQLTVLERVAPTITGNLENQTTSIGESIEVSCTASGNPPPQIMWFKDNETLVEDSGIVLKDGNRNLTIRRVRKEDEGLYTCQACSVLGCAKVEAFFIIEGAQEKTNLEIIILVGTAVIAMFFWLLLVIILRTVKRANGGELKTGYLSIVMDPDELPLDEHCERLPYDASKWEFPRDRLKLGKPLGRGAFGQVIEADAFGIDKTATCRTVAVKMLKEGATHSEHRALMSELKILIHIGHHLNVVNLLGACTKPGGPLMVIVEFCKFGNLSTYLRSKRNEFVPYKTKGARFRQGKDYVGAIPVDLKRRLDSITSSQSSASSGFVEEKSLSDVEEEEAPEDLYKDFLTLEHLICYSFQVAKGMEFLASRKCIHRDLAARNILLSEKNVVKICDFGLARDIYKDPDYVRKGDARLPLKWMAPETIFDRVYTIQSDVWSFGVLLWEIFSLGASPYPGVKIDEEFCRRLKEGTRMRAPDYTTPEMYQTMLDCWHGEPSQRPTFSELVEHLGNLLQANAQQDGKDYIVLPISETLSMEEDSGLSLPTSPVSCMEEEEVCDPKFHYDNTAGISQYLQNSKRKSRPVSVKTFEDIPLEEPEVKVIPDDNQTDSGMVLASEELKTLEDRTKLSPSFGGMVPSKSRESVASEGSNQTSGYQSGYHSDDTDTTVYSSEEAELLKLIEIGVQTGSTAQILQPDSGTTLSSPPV
# protocol summary: Kinase inhibition assay (33P transfer), Kdr
# Assay type: biochemical
# condition summary: Table 3; read-out: KDR-1

## Task Please report the recorded IC50 for COc1cc(Nc2ncnc(-n3cnc4ccccc43)n2)cc(OC)c1OC [Compound 186] .
## Result < 1.06 µM

## Task Which measured IC50 value corresponds to COc1cc(Nc2ncnc(Nc3ccc(OCc4ccccc4)cc3)n2)cc(OC)c1 [Compound 156] ?
## Result 5.59 to 8.15 µM

## Task Param item = Cc1cccc(Nc2ncnc(Nc3ccc4[nH]ccc4c3)n2)c1 [Compound 110] ; retrieve measured IC50.
## Result < 1.26 µM

## Task Form field: reported IC50 of COc1cc(Nc2ncnc(Nc3ccc(O)cc3)n2)cc(OC)c1OC [Compound 85]
## Result < 1.08 µM

## Task Given the compound COc1cc(Nc2ncnc(N3CCc4ccccc4C3)n2)cc(OC)c1OC [Compound 326] , what is its reported IC50?
## Result > 11.4 µM

## Task Which IC50 value belongs to CCOc1ccc(Nc2ncnc(Nc3ccc(OCc4ccccc4)cc3)n2)cc1OCC [Compound 170] ?
## Result 0.874 to 5.25 µM

## Task Fill in: IC50 of COc1ccc(Nc2nc3ccccc3n2-c2ncnc(Nc3cc(OC)c(OC)c(OC)c3)n2)cc1OC [Compound 400] is ___
## Result < 0.755 µM

## Task Which IC50 reading was recorded for the compound Clc1ncnc(Nc2ccc(OCc3ccccc3)cc2)n1 [Compound 153] ?
## Result 11.2 to 14.4 µM

## Task Need IC50, item CC(C)(C)OC(=O)NCc1ccc(Nc2ncnc(Nc3cc(-c4ccco4)n[nH]3)n2)cc1 [Compound 431]
## Result 0.892 to 5.35 µM
